- experimental-target: UniProt:P30872
- measurement-protocol: Inhibitory concentration required for somatostatin 1 receptor in radioligand binding assay ([125I]Tyr11-SRIF)

{"compound": "NCCCC1CCCN2C(=O)[C@@H](Cc3c[nH]c4ccccc34)SCCN(Cc3cccc4ccccc34)C(=O)C12 (stereo partly specified)", "IC50 (nM)": 407}

###

- experimental-target: Somatostatin receptor type 3 (Homo sapiens, UniProt P32745)
- Sequence (P32745 whole entry): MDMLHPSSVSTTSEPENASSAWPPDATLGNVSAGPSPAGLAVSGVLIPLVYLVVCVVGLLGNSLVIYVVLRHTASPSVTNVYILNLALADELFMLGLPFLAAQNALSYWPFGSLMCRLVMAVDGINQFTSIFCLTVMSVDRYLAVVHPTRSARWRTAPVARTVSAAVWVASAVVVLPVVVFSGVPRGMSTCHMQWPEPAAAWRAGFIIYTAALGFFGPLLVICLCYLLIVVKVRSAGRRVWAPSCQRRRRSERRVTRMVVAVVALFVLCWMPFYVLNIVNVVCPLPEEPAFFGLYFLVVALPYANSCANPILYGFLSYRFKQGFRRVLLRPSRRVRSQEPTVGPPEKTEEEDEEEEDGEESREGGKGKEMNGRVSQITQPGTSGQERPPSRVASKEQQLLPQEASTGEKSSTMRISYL
quantity: IC50 (nM)

{"molecule": "NCCCC1CCCN2C(=O)[C@@H](Cc3c[nH]c4ccccc34)SCCN(Cc3cccc4ccccc34)C(=O)C12 (some centres not stated)", "experimental-target": "Somatostatin receptor type 3 (Homo sapiens, UniProt P32745)", "quantity": "IC50", "unit-spec": "nM", "reported-value": 1260}
{"molecule": "NCCCC[C@H]1NC(=O)[C@@H](Cc2c[nH]c3ccccc23)SCCN(Cc2cccc3ccccc23)C1=O", "experimental-target": "Somatostatin receptor type 3 (Homo sapiens, UniProt P32745)", "quantity": "IC50", "unit-spec": "nM", "reported-value": 3090}

###

- experimental-target: UniProt:P35346
- Sequence (P35346 whole entry): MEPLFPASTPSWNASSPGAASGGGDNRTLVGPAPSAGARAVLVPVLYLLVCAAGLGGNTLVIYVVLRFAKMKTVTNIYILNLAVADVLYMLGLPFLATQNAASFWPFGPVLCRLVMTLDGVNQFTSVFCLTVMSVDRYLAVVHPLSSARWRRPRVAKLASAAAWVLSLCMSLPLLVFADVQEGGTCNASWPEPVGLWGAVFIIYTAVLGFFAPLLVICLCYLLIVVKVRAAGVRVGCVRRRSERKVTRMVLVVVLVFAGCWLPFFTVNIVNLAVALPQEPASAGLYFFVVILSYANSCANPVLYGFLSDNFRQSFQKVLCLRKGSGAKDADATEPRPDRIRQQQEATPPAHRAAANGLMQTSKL
- measurement-protocol: Inhibition of somatostatin binding to sst5 receptor at 1 uM in radioligand binding assay ([125I]Tyr11-SRIF) in membranes from CHO-K1 cells
- Assay type: cell membranes
Rule: inhibition of 60% or more gives TRUE; anything lower gives FALSE.

{"compound": "NCCCC1CCCN2C(=O)[C@@H](Cc3c[nH]c4ccccc34)SCCN(Cc3cccc4ccccc34)C(=O)C12 (stereo not given in full)", "experimental-target": "UniProt:P35346", "label": "TRUE"}
{"compound": "NCCCC[C@H]1NC(=O)[C@@H](Cc2c[nH]c3ccccc23)Sc2ccccc2CN(Cc2cccc3ccccc23)C1=O", "experimental-target": "UniProt:P35346", "label": "TRUE"}
{"compound": "NCC[C@@H]1C[C@@H]2C(=O)N(Cc3cccc4ccccc34)CCS[C@H](Cc3c[nH]c4ccccc34)C(=O)N2C1", "experimental-target": "UniProt:P35346", "label": "FALSE"}
{"compound": "NCC[C@H]1C[C@@H]2C(=O)N(Cc3cccc4ccccc34)CCS[C@H](Cc3c[nH]c4ccccc34)C(=O)N2C1", "experimental-target": "UniProt:P35346", "label": "FALSE"}
{"compound": "NCCCC[C@H]1NC(=O)[C@@H](Cc2c[nH]c3ccccc23)SCCN(Cc2cccc3ccccc23)C1=O", "experimental-target": "UniProt:P35346", "label": "TRUE"}

###

- experimental-target: Somatostatin receptor type 1 (Homo sapiens)
- Sequence (P30872 whole entry): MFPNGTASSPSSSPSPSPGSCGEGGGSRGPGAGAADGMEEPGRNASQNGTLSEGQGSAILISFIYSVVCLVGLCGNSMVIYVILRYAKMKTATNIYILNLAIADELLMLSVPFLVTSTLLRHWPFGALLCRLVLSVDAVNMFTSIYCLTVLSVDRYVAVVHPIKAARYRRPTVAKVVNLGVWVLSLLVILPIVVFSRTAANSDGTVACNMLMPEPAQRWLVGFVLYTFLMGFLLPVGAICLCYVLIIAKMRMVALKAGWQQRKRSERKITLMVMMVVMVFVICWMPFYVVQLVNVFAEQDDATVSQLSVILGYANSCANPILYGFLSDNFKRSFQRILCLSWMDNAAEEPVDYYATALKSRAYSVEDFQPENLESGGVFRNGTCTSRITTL
- measurement-protocol: Inhibition of somatostatin binding to sst1 receptor at 1 uM in radioligand binding assay ([125I]Tyr11-SRIF) in membranes from CHO-K1 cells
- Assay type: cell membranes

{"molecule": "NCC[C@@H]1C[C@@H]2C(=O)N(Cc3cccc4ccccc34)CCS[C@H](Cc3c[nH]c4ccccc34)C(=O)N2C1", "inhibition [%]": 13}
{"molecule": "NCC[C@H]1C[C@@H]2C(=O)N(Cc3cccc4ccccc34)CCS[C@H](Cc3c[nH]c4ccccc34)C(=O)N2C1", "inhibition [%]": 28}
{"molecule": "NCCCC1CCCN2C(=O)[C@@H](Cc3c[nH]c4ccccc34)SCCN(Cc3cccc4ccccc34)C(=O)C12 (stereo not given in full)", "inhibition [%]": 64}
{"molecule": "NCCCC[C@H]1NC(=O)[C@@H](Cc2c[nH]c3ccccc23)SCCN(Cc2cccc3ccccc23)C1=O", "inhibition [%]": 64}
{"molecule": "NCCCC[C@H]1NC(=O)[C@@H](Cc2c[nH]c3ccccc23)Sc2ccccc2CN(Cc2cccc3ccccc23)C1=O", "inhibition [%]": 36}

These measurements were taken from ChEMBL document CHEMBL1132841.
